Value source: patent US9113629B2

# Tested on: ALOMY: black-grass (Alopecurus myosuroides)
# Assay Comment: Post-emergent Test III, herbicidal activity in wheat and barley
# Assay type: in vivo
# Condition Notes: probit analysis, dose for growth reduction of 80 percent, 21 days after application
Result Type: GR80 ALOMY (g ai/ha)
The reply should be a number in g ai/ha, with the unit left off.

- Structure: "COC(=O)c1nc(-c2ccc(Br)c(F)c2F)c(F)c(N)c1Cl"
  Assayed Target: "ALOMY: black-grass (Alopecurus myosuroides)"
  GR80 ALOMY (g ai/ha): 88

# ---- query compound ----
# input compound: COC(=O)c1nc(-c2ccc(I)cc2)c(F)c(N)c1Cl ; wanted: its GR80 ALOMY
60

====

# Tested on: Key Broadleaf Weed and Crop Species
# Assay Comment: Post-emergent Test II herbicidal activity (Table 5)
# Assay type: in vivo
# Condition Notes: post-emergence, 336 h; BRSNN: oilseed-rape, canola (Brassica napus); application rate 140 g ai/ha; post-emergent; 14 days after application; read-out: Visual Growth Reduction (%) 14 Days After Application, BRSNN
# Source text: Post-emergent Test II: Seeds or nutlets of the desired test plant species were planted in Sun Gro Metro-Mix® 360 planting mixture, which typically has a pH of 6.0 to 6.8 and an organic matter content of about 30 percent, in plastic pots with a surface area of 64 square centimeters. When required to ensure good germination and healthy plants, a fungicide treatment and/or other chemical or physical treatment was applied. […]
Parameter: pest or weed control at 140 g/ha. Scope: all listed entries.

- Compound: "Cc1cc(F)c(-c2cc(N)c(Cl)c(C(=O)O)n2)cc1F [Compound 188]"
  Assayed Target: "Key Broadleaf Weed and Crop Species"
  Result: "60 to 74%"
- Compound: "Nc1c(F)c(-c2cc(F)c(C(F)F)cc2F)nc(C(=O)O)c1Cl [Compound 178]"
  Assayed Target: "Key Broadleaf Weed and Crop Species"
  Result: "95 to 100%"
- Compound: "COc1c(N)nc(-c2cc(F)c(C(F)F)cc2F)nc1C(=O)O [Compound 203]"
  Assayed Target: "Key Broadleaf Weed and Crop Species"
  Result: "45 to 59%"

Could you tell me which pest or weed control at 140 g/ha is on file for Cc1cc(F)c(-c2nc(C(=O)O)c(Cl)c(N)c2F)cc1F [Compound 194] ?
75 to 84%

Which value of pest or weed control at 140 g/ha has been reported for Nc1cc(-c2cc(F)c(C(F)F)cc2F)nc(C(=O)O)c1Cl [Compound 174] in the records?
95 to 100%

Param item = Nc1c(F)c(-c2cc(F)c(OC(F)F)cc2F)nc(C(=O)O)c1Cl [Compound 195] ; retrieve measured pest or weed control at 140 g/ha.
60 to 74%

// lookup pest or weed control at 140 g/ha for COc1c(N)nc(-c2cc(F)c(C)cc2F)nc1C(=O)O [Compound 201]
95 to 100%

====

pest or weed control at 140 g/ha by entry:
# Tested on: BROTE: downy brome (Bromus tectorum)
# Assay Comment: Post-emergent Test III, herbicidal activity in wheat and barley
# Assay type: in vivo
# Condition Notes: Bromus tectorum, post-emergence, 504 h; 140 g ai/ha; read-out: Visual Growth Reduction (%) 21 Days After Application BROTE

- Structure: "Nc1cc(-c2ccc(Br)c(F)c2F)nc(C(=O)O)c1Cl"
  Result: "30 to 44%"
- Structure: "COC(=O)c1nc(-c2ccc(C#N)cc2)c(F)c(N)c1Cl"
  Result: "0 to 29%"
- Structure: "Nc1c(F)c(-c2ccc(Cl)c(F)c2)nc(C(=O)O)c1Cl"
  Result: "85 to 94%"
- Structure: "COC(=O)c1nc(-c2ccc(F)c(F)c2F)c(F)c(N)c1Cl"
  Result: "0 to 29%"

Here is another compound to look at.
Fill in: pest or weed control at 140 g/ha of COC(=O)c1nc(-c2ccc(F)cc2)c(F)c(N)c1Cl is ___
30 to 44%

====

# pest or weed control at 70 g/ha annotations
# Tested on: SETVI: green foxtail (Setaria viridis)
# Assay Comment: Post-emergent Test III, herbicidal activity in wheat and barley
# Type: in vivo
# Condition Notes: Setaria viridis, post-emergence, 504 h; Table 9; 70 g ai/ha; post-emergent; 21 d; read-out: Visual Growth Reduction (%) 21 Days After Application SETVI

Look at this molecule and give its reported pest or weed control at 70 g/ha. Nc1c(Cl)c(C(=O)O)nc(-c2ccc(I)cc2)c1Cl
45 to 59%

Item C#Cc1ccc(-c2nc(N)c(OC)c(C(=O)O)n2)cc1 has what recorded pest or weed control at 70 g/ha?
0 to 29%

Would you mind telling me what pest or weed control at 70 g/ha value was observed for Nc1c(F)c(-c2cc(F)c(Br)cc2F)nc(C(=O)O)c1Cl ?
85 to 94%

Consider the molecule Nc1cc(-c2ccc(C(F)(F)F)c(F)c2F)nc(C(=O)O)c1Cl and give its measured pest or weed control at 70 g/ha.
75 to 84%

====

# Test system: Key Broadleaf Weed and Crop Species
# Assay Comment: Post-emergent Test II herbicidal activity (Table 5)
# Format: in vivo
# Condition Notes: post-emergence, 336 h; ABUTH: velvetleaf (Abutilon theophrasti); application rate 140 g ai/ha; 14 days after application; read-out: Visual Growth Reduction (%) 14 Days After Application, ABUTH
Overview of reported pest or weed control at 140 g/ha across a group of compounds:

Example entries and their recorded answers appear below.
- Structure: "Nc1c(F)c(-c2ccc(OC(F)F)c(F)c2F)nc(C(=O)O)c1Cl"
  pest or weed control at 140 g/ha: "0 to 29%"
- Structure: "COc1c(N)nc(-c2ccc(Br)c(F)c2F)nc1C(=O)O"
  pest or weed control at 140 g/ha: "95 to 100%"
- Structure: "C#Cc1ccc(-c2nc(C(=O)O)c(Cl)c(N)c2F)cc1"
  pest or weed control at 140 g/ha: "75 to 84%"

State its pest or weed control at 140 g/ha on Key Broadleaf Weed and Crop Species: COC(=O)c1nc(-c2ccc(C(F)(F)F)c(F)c2)cc(N)c1Cl
85 to 94%

Return pest or weed control at 140 g/ha measured with Key Broadleaf Weed and Crop Species given this compound: COc1c(N)nc(-c2ccc(I)cc2)nc1C(=O)O
95 to 100%

====

Below, each of the compounds is paired with its reported GR80 KCHSC value.
# Test system: KCHSC: kochia (Kochia scoparia)
# Assay Comment: Post-emergent Test III, herbicidal activity in wheat and barley
# Format: in vivo
# Condition Notes: Table 8; dose for 80 percent growth reduction, probit analysis; 21 d
Response body: numeric value in g ai/ha, unit text excluded.

Please review the entries below; each comes with its answer.
- Structure: "Nc1c(Cl)c(C(=O)O)nc(-c2ccc(Br)c(F)c2)c1Cl"
  Assayed Target: "KCHSC: kochia (Kochia scoparia)"
  Result Type: "GR80 KCHSC"
  Result Number: 41
- Structure: "COc1c(N)nc(-c2ccc(I)c(F)c2)nc1C(=O)O"
  Assayed Target: "KCHSC: kochia (Kochia scoparia)"
  Result Type: "GR80 KCHSC"
  Result Number: 119
- Structure: "COC(=O)c1nc(-c2ccc(I)c(F)c2)nc(N)c1OC"
  Assayed Target: "KCHSC: kochia (Kochia scoparia)"
  Result Type: "GR80 KCHSC"
  Result Number: 61
- Structure: "COC(=O)c1nc(-c2ccc(Br)c(F)c2)nc(N)c1OC"
  Assayed Target: "KCHSC: kochia (Kochia scoparia)"
  Result Type: "GR80 KCHSC"
  Result Number: 23
- Structure: "Nc1c(Cl)c(C(=O)O)nc(-c2ccc(I)c(F)c2)c1Cl"
  Assayed Target: "KCHSC: kochia (Kochia scoparia)"
  Result Type: "GR80 KCHSC"
  Result Number: 112

State the recorded GR80 KCHSC for this entry: COC(=O)c1nc(-c2ccc(I)c(F)c2)c(C)c(N)c1Cl
70

====

In this section, each of the molecules is paired with its reported pest or weed control at 70 g/ha.
# System: TRZSS: wheat, including spring and winter (Triticum aestivum)
# Assay Comment: Post-emergent Test III, herbicidal activity in wheat and barley
# Type: in vivo
# Condition Notes: Triticum aestivum, post-emergence, 504 h; 70 g ai/ha; read-out: Visual Growth Reduction (%) 21 Days After Application TRZSS

Examples with answers:
- Structure: "Nc1c(F)c(-c2ccc(OC(F)F)cc2)nc(C(=O)O)c1Cl"
  Assayed Target: "TRZSS: wheat, including spring and winter (Triticum aestivum)"
  Result Type: "pest or weed control at 70 g/ha"
  Result: "75 to 84%"
- Structure: "N#Cc1ccc(-c2nc(C(=O)O)c(Cl)c(N)c2F)cc1"
  Assayed Target: "TRZSS: wheat, including spring and winter (Triticum aestivum)"
  Result Type: "pest or weed control at 70 g/ha"
  Result: "75 to 84%"
- Structure: "COC(=O)c1nc(-c2ccc(I)cc2)c(F)c(N)c1Cl"
  Assayed Target: "TRZSS: wheat, including spring and winter (Triticum aestivum)"
  Result Type: "pest or weed control at 70 g/ha"
  Result: "85 to 94%"
- Structure: "COC(=O)c1nc(-c2ccc(C#N)cc2)c(F)c(N)c1Cl"
  Assayed Target: "TRZSS: wheat, including spring and winter (Triticum aestivum)"
  Result Type: "pest or weed control at 70 g/ha"
  Result: "0 to 29%"

From here, focus on the item given below.
Any idea what its pest or weed control at 70 g/ha is? The molecule is COC(=O)c1nc(-c2ccc(Cl)c(F)c2)c(F)c(N)c1Cl
85 to 94%
